- experimental system: His6-AspH315–758 (human aspartate/asparagine-β-hydroxylase, AspH) (Homo sapiens)
- Construct: N-Terminally His6-tagged human AspH315–758 (His6-AspH315–758) was produced in E. coli BL21 (DE3) cells; made in house; host or cells: E. coli BL21 (DE3), pET-28a(+) vector
- assay remarks: SPE-MS AspH inhibition assay (LOPAC screen at fixed 20 μM and IC50 dose-response), hydroxylation of cyclic peptide hFX-CP101–119
- Type: biochemical
property measured: Plate 1 (% conversion) (%)
One number for each entry, in %.

// worked examples, Plate 1 (% conversion) included
INSERT INTO measurements (compound, property_measured, unit_text, readout_value) VALUES
  ('NCCCP(=O)(O)O [3-Aminopropylphosphonic acid]', 'Plate 1 (% conversion)', '%', 37.53),
  ('NC1CCN(O)C1=O (racemic) [(±)-HA-966]', 'Plate 1 (% conversion)', '%', 36.52);

Proceeding to the next compound to report its Plate 1 (% conversion).
Specify reported Plate 1 (% conversion) for the compound shown: CCC1(c2ccc(N)cc2)CCC(=O)NC1=O (racemic) [(±)-p-Aminoglutethimide]
34.85

====

- experimental system: His6-AspH315–758 (human aspartate/asparagine-β-hydroxylase, AspH) (Homo sapiens, UniProt Q12797)
- Construct: N-Terminally His6-tagged human AspH315–758 (His6-AspH315–758) was produced in E. coli BL21 (DE3) cells; made in house; host or cells: E. coli BL21 (DE3), pET-28a(+) vector
- Sequence (Q12797 315-758): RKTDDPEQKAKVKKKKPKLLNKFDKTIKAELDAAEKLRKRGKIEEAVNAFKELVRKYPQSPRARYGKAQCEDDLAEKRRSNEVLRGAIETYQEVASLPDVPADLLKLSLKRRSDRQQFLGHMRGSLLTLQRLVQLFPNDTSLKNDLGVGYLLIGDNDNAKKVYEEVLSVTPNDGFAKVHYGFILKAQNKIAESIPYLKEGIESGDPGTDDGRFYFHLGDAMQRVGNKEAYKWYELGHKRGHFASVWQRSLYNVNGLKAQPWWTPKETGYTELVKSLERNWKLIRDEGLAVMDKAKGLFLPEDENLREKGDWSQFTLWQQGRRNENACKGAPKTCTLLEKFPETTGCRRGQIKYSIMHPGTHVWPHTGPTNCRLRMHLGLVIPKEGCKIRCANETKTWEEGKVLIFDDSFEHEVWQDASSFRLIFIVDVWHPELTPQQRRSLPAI
- assay remarks: SPE-MS AspH inhibition assay (LOPAC screen at fixed 20 μM and IC50 dose-response), hydroxylation of cyclic peptide hFX-CP101–119
- Type: biochemical
- cond: LOPAC compound at 20uM, plate 2; normalised to DMSO and 2,4-PDCA controls
Kindly state Plate 2 (% inhibition) for each of the entries shown.
Give bare numbers, in %.

Study these solved cases before continuing.
INSERT INTO measurements (compound, property_measured, unit_text, readout_value) VALUES
  ('O=C(c1ccc(Cl)cc1)N1CCN(c2ccc([N+](=O)[O-])c3ncccc23)CC1 [CPNQ]', 'Plate 2 (% inhibition)', '%', -0.10),
  ('N[C@H](C(=O)O)[C@H]1C[C@@H]1C(=O)O [(2S,1S,2S)-2-(carboxycyclopropyl)glycine]', 'Plate 2 (% inhibition)', '%', 10.80);

Batch of 5 compounds: report Plate 2 (% inhibition) for each.
1. CN(C)C(=O)N=NC(=O)N(C)C [N,N,N,N-Tetramethylazodicarboxamide]
2. Cl.Cl.Fc1ccc(C(OCCN2CCN(CCCc3ccccc3)CC2)c2ccc(F)cc2)cc1 [GBR-12909 dihydrochloride]
3. CNCCc1ccc(O)c(O)c1.Cl [N-Methyldopamine hydrochloride]
4. CN1C[C@H](O)[C@@H](O)[C@H](O)[C@H]1CO [N-Methyl-1-deoxynojirimycin]
5. O=C([O-])c1cc2cc(Cc3cccnc3)ccc2o1.[Na+] [Furegrelate sodium]

1: -8.32; 2: -45.09; 3: 78.96; 4: 3.48; 5: -2.76

I'm hoping you can list Plate 2 (% inhibition) for every compound here, please.
1. COc1cc(SC)ccc1C(=O)N1CCC(Cc2ccccc2)CC1 [JX401]
2. N#Cc1cc2nc([O-])c([O-])nc2cc1[N+](=O)[O-].[Na+].[Na+] [CNQX disodium]
3. CC1=NN=C(c2ccc(N)cc2)c2cc3c(cc2C1)OCO3.Cl [GYKI 52466 hydrochloride]

1: -29.09; 2: -11.30; 3: -8.84

Value sought for every listed compound: Plate 2 (% inhibition).
1. CN1CCc2cc(Cl)c(O)cc2[C@@H](c2ccccc2)C1.Cl [R(+)-SCH-23390 hydrochloride]
2. Cl.N[C@@H](CCC(=O)O)C(=O)O [L-Glutamic acid hydrochloride]

1. -3.60
2. 20.74

Ref: paper PMC7251097
